# TESTED_ON: human plasma-derived FIXa (Haematologic Technologies Inc) (human, UniProt P00740 47-191; P00740 227-461)
# Sequence (P00740 47-191, chain 1 of 2): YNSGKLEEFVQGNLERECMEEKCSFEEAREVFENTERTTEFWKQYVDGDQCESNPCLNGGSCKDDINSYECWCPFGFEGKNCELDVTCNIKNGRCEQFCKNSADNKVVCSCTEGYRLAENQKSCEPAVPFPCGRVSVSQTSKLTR
# Sequence (P00740 227-461, chain 2 of 2): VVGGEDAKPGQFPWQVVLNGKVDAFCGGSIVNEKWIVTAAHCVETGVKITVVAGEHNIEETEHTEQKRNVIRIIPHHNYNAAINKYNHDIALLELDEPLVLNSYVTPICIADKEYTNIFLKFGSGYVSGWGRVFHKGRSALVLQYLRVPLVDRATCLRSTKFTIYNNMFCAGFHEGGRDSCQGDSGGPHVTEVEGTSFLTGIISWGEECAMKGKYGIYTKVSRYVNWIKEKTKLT
# ASSAY_DETAILS: cell-based or functional assay
ATTRIBUTE_MEASURED: FXa generation rate at 12.5 nM mAb (pM/min)
Numbers only, in pM/min.

Some solved entries appear below for comparison.
{"BINDER": "mAb1-4624 (antibody, V domains shown) VH: EVQLVQSGAEVKKPGESLRISCKGSGYRFTSYWIGWVRQMPGKGLEWMGMIDPTDSYTDYGPSFRGHVTISADKSISTAYLQWSSLKASDTAMYYCARVRIMSGAFDIWGQGTMVTVSS VL: DIVMTQSPLSLPVTPGEPASISCRSSQSLLHSTWYNYLNWYLQKPGQSPQLLIYLGSNRASGVPDRFSGSGSGTDFTLKISRVEAEDVGVYYCMQVLHIPYTFGQGTKLEIK", "OBSERVED_VALUE": 752}
{"BINDER": "mAb1-4861 (antibody, V domains shown) VH: EVQLVESGGGLVQPGRSLKLSCAASGFTFDDYAMHWVRQVPGKGLEWVSGISWNGDNIGYVDSVKGRFTISRDNAKNSLYLQLNSLRAEDTALYYCVKSYGSGSFYNAFDSWGQGTLVTVSS VL: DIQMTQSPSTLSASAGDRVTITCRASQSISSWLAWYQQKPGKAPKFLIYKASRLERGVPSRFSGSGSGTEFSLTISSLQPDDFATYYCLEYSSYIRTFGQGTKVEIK", "OBSERVED_VALUE": 385}

Q: Requested read-out: FXa generation rate at 12.5 nM mAb. Entry: mAb1-4707 (antibody, V domains shown) VH: EVQLVESGGGLVQPGRSLRLSCAASGFTFGDYAMHWVRQAPGKGLEWVSGISWVSGSIGYARSVKGRFTISRDNAKNSLYLQMNSLRAEDTALYYCAKGQYDEDAGMDVWGQGTTVTVSS VL: DIQMTQSPSSLSASVGDRVTITCRASQSIRSYLNWYQQKPGKAPKLLIYAASSLQSGVPSRFSGSGSGTDFTLTISSLQPEDFATYYCQQGYPTWTFGGGTKVEIK
Result: 697
